TEST TARGET: eosinophil peroxidase (EPO) (Homo sapiens, UniProt P11678)
Construct: Eosinophil peroxidase was purified from human white blood cells to a purity index (A413/A280) of at least 1.0; from tissue; host or cells: human white blood cells
Sequence (P11678 251-715 limits assumed): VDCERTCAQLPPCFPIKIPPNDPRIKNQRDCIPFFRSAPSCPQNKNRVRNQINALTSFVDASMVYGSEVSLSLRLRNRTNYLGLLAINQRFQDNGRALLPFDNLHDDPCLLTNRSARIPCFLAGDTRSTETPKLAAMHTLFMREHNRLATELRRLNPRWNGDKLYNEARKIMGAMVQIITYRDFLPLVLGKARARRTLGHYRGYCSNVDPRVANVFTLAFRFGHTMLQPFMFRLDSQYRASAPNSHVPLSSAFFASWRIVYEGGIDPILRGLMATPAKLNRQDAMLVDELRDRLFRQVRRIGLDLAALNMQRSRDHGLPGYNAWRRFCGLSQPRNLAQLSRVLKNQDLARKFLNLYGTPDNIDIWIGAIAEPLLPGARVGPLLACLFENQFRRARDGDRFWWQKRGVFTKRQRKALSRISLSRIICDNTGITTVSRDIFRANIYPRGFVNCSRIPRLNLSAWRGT
Sequence (P11678 140-250 limits assumed): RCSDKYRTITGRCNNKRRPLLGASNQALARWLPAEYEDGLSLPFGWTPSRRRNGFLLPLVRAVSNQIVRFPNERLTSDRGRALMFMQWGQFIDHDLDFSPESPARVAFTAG
EXPERIMENTAL DETAILS: Inhibition of EPO-mediated bromination, monochlorodimedone (MCD) assay
Format: biochemical
COND: as stated in text (abstract, conclusion); read-out: IC50
RECORDED ENDPOINT: IC50

INSERT INTO results (molecule, test_target, recorded_endpoint, result) VALUES
  ('NNC(=O)CNc1ccc(Cl)cc1 [Compound 10]', 'eosinophil peroxidase (EPO) (Homo sapiens, UniProt P11678)', 'IC50', '21 nM'),
  ('NNC(=O)CNc1ccccc1F [Compound 19]', 'eosinophil peroxidase (EPO) (Homo sapiens, UniProt P11678)', 'IC50', '10 nM');

----------
TEST TARGET: eosinophil peroxidase (EPO) (Homo sapiens, UniProt P11678)
Construct: Eosinophil peroxidase was purified from human white blood cells to a purity index (A413/A280) of at least 1.0; from tissue; host or cells: human white blood cells
EXPERIMENTAL DETAILS: Inhibition of EPO-mediated bromination, monochlorodimedone (MCD) assay
Format: biochemical
COND: Table 4; 20 nM EPO, 100 mM bromide, 100 µM H2O2, pH 7.0; read-out: IC50 value
pIC50: −log10 of the molar value.
Measured pIC50, listed per entry for reference.
RECORDED ENDPOINT: pIC50

INSERT INTO measurements (smiles_input, test_target, recorded_endpoint, result_number) VALUES
  ('NNC(=O)CNc1ccccc1F', 'eosinophil peroxidase (EPO) (Homo sapiens, UniProt P11678)', 'pIC50', 8.00),
  ('NNC(=O)CNc1ccccc1Cl', 'eosinophil peroxidase (EPO) (Homo sapiens, UniProt P11678)', 'pIC50', 6.04),
  ('Cc1ccc(NCC(=O)NN)cc1', 'eosinophil peroxidase (EPO) (Homo sapiens, UniProt P11678)', 'pIC50', 5.64),
  ('NNC(=O)CNc1ccccc1', 'eosinophil peroxidase (EPO) (Homo sapiens, UniProt P11678)', 'pIC50', 5.54),
  ('NNC(=O)CNc1ccc(I)cc1', 'eosinophil peroxidase (EPO) (Homo sapiens, UniProt P11678)', 'pIC50', 6.54),
  ('NNC(=O)CNc1cccc(Br)c1', 'eosinophil peroxidase (EPO) (Homo sapiens, UniProt P11678)', 'pIC50', 6.08),
  ('NNC(=O)CNc1ccc(Br)cc1', 'eosinophil peroxidase (EPO) (Homo sapiens, UniProt P11678)', 'pIC50', 6.08),
  ('NNC(=O)CNc1ccc(F)cc1F', 'eosinophil peroxidase (EPO) (Homo sapiens, UniProt P11678)', 'pIC50', 7.70),
  ('NNC(=O)CNc1ccc(F)c(Cl)c1', 'eosinophil peroxidase (EPO) (Homo sapiens, UniProt P11678)', 'pIC50', 7.47),
  ('NNC(=O)CNc1ccc(F)cc1', 'eosinophil peroxidase (EPO) (Homo sapiens, UniProt P11678)', 'pIC50', 6.76);
